Cited source: patent US9458102B2

Target: heteromeric rod CNG channels consisting of CNGA1 and CNGB1 subunits (Bos taurus, UniProt Q00194+Q28181)
Sequence (Q00194 whole entry): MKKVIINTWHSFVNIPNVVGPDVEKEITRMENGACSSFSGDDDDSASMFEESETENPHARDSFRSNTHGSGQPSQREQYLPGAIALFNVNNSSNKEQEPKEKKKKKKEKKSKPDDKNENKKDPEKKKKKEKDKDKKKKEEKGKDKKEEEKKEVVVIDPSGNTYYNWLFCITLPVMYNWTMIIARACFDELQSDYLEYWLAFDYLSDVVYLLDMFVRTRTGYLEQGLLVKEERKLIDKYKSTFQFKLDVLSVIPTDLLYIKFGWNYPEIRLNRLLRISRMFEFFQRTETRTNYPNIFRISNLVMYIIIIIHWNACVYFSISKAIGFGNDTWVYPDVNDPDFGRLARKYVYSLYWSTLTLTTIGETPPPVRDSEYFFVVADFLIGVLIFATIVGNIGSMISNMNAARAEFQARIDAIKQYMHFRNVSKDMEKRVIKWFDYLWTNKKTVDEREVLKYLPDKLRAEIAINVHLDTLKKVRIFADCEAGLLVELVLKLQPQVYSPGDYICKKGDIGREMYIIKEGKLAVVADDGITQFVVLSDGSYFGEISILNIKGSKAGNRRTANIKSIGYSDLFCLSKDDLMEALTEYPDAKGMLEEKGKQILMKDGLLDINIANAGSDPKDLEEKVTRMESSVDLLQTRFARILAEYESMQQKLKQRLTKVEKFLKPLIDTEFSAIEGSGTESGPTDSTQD
Sequence (Q28181 whole entry): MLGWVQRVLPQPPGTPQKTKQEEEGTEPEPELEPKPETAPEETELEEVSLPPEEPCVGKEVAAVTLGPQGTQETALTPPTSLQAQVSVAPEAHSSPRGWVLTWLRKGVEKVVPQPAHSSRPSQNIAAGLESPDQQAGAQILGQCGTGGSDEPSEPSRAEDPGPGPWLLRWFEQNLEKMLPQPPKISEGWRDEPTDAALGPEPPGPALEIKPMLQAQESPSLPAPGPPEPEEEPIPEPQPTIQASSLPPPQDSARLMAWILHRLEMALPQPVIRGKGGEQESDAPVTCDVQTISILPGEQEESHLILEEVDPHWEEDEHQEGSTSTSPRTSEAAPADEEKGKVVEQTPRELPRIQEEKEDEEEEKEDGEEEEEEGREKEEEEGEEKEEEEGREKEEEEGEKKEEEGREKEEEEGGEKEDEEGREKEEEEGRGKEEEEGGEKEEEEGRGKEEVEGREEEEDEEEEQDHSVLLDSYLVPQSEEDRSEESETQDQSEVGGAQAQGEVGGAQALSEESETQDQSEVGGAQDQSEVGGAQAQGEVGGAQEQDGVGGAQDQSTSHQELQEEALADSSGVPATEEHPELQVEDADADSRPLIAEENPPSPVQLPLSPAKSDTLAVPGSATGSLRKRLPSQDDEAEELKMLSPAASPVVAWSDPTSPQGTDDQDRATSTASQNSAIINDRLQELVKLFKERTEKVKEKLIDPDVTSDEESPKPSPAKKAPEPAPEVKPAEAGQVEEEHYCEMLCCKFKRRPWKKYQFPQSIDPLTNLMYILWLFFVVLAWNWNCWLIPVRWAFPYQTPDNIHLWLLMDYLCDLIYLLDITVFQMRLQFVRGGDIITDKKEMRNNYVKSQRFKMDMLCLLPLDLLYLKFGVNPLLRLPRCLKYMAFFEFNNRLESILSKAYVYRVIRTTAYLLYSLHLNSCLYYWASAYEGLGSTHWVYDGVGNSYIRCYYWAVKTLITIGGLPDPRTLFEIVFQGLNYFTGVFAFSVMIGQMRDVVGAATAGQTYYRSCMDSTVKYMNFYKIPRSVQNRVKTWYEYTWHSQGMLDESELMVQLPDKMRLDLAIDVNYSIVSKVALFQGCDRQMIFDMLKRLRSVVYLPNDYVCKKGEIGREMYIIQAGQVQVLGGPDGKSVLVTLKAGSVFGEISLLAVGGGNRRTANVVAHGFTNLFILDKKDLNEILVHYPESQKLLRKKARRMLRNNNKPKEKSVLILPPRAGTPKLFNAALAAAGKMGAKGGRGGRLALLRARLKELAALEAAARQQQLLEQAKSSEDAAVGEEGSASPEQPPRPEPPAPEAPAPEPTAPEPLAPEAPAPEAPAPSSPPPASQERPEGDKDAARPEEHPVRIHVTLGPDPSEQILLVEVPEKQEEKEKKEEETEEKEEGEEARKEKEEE
Assay: biochemical
Type: cell-based
Settings: Table 2 (butyl series); +50 mV, 2 mM cGMP; read-out: KD(+50)
Quantity: pKd
// field semantics: pKd = negative decimal log of concentration (mol/L)

[[record]]
molecule = "CCCCNc1ccc(C(=O)OCCN(C)C)cc1OC [Compound 12b]"
quantity = "pKd"
readout_number = 5.37

[[record]]
molecule = "CCCCNc1ccc(C(=O)OCCN(C)C)cc1[N+](=O)[O-] [Compound 12a]"
quantity = "pKd"
readout_number = 5.26

[[record]]
molecule = "CCCCNc1ccc(C(=O)OCCN(C)C)cc1Cl [Compound 12d]"
quantity = "pKd"
readout_number = 5.52


Entry CCCCNc1ccc(C(=O)OCCN(C)C)cc1C [Compound 12c] has what pKd?
5.11

====

Target: heteromeric rod CNG channels consisting of CNGA1 and CNGB1 subunits (Bos taurus, UniProt Q00194+Q28181)
Assay: biochemical
Assay type: cell-based
Settings: Table 1; +50 mV, 2 mM cGMP; mean±SD, not corrected for ion accumulation; read-out: KD(+50)
Kd listing for selected compounds.
A bare number is not enough; add the unit after it.

[[record]]
compound = "CCCCCCCCNc1ccc(C(=O)OCCN(C)C)cc1 [Compound 5, reference compound]"
result = "1 µM"

[[record]]
compound = "CCCCCCCCNc1ccc(C(=S)NCCN(C)C)cc1"
result = "0.7 µM"

[[record]]
compound = "CCCCNc1ccc(C(=S)NCCN(C)C)cc1"
result = "0.6 µM"


Now take the following compound into account.
So what's the measured Kd for this one? CCCCNc1ccc(C(=O)NCCN(C)C)cc1
4.4 µM

====

pKd reference
Biological target: heteromeric rod CNG channels consisting of CNGA1 and CNGB1 subunits (Bos taurus, UniProt Q00194+Q28181)
Test: biochemical
Format: cell-based
Settings: Table 1; −50 mV, 2 mM cGMP; mean±SD, not corrected for ion accumulation; read-out: KD(−50)
pKd here: minus log base 10 of the concentration, concentration in moles per litre.

[[record]]
compound = "CCCCCCCCNc1ccc(C(=O)OCCN(C)C)cc1 [Compound 5, reference compound]"
readout_number = 5.62

[[record]]
compound = "CCCCNc1ccc(C(=O)NCCN(C)C)cc1"
readout_number = 4.54


// pKd lookup, key: CCCCNc1ccc(C(=S)NCCN(C)C)cc1
5.41

====

Biological target: heteromeric rod CNG channels consisting of CNGA1 and CNGB1 subunits (Bos taurus, UniProt Q00194+Q28181)
Assay: biochemical
Format: cell-based
Settings: octyl series table; +50 mV, 2 mM cGMP; read-out: KD(+50)
Protocol: Currents were elicited by a voltage step protocol from 0 to −50 to +50 mV (See FIG. 1) in the presence of 2 mM cGMP or 2 mM cGMP and compound (5 μM). […] Recordings from inside-out excised patches were made 3-7 days after oocyte injection on an Axopatch 1D® amplifier (Axon Instruments, Foster City, Calif.). […] Glass syringes and Teflon tubing were used to minimize the binding of compounds to surfaces; concentrations passing through the perfusion system were verified by absorbance.
Quantity: Kd (nM)
Reply numerically in nM, unit not repeated.

Worked cases, Kd given:
[[record]]
compound = "CCCCCCCCNc1ccc(C(=O)OCCN(C)C)cc1F [Compound 14e]"
quantity = "Kd"
readout_number = 200

[[record]]
compound = "CCCCCCCCNc1ccc(C(=O)OCCN(C)C)cc1Cl [Compound 14d]"
quantity = "Kd"
readout_number = 140

[[record]]
compound = "CCCCCCCCNc1ccc(C(=O)OCCN(C)C)cc1OC [Compound 14b]"
quantity = "Kd"
readout_number = 1250

[[record]]
compound = "CCCCCCCCNc1ccc(C(=O)OCCN(C)C)c(Cl)c1 [Compound 14g]"
quantity = "Kd"
readout_number = 100

[[record]]
compound = "CCCCCCCCNc1ccc(C(=O)OCCN(C)C)cc1C [Compound 14c]"
quantity = "Kd"
readout_number = 500


Param item = CCCCCCCCNc1ccc(C(=O)OCCN(C)C)cc1[N+](=O)[O-] [Compound 14a] ; retrieve measured Kd.
8000

Kd lookup needed for CCCCCCCCNc1ccc(C(=O)OCCN(C)C)cc1Br [Compound 14f] , thanks.
140

Looking for the measured Kd of CCCCCCCCNc1ccc(C(=O)OCCN(C)C)cc1 [Compound 5, reference compound] , can you help?
800

====

Biological target: heteromeric rod CNG channels consisting of CNGA1 and CNGB1 subunits (Bos taurus, UniProt Q00194+Q28181)
Experiment: biochemical
Assay type: cell-based
Conditions: octyl series table; −50 mV, 2 mM cGMP; read-out: KD(−50)
Each record here notes measured pKd.
# reply with the number alone; pKd is -log10 of concentration in mol/L

[[record]]
molecule = "CCCCCCCCNc1ccc(C(=O)OCCN(C)C)cc1 [Compound 5, reference compound]"
readout_number = 5.76

[[record]]
molecule = "CCCCCCCCNc1ccc(C(=O)OCCN(C)C)c(Cl)c1 [Compound 14g]"
readout_number = 6.66

[[record]]
molecule = "CCCCCCCCNc1ccc(C(=O)OCCN(C)C)cc1F [Compound 14e]"
readout_number = 6.12


Any idea what pKd was measured for CCCCCCCCNc1ccc(C(=O)OCCN(C)C)cc1OC [Compound 14b] ?
5.52

If you can, please state the reported pKd value of CCCCCCCCNc1ccc(C(=O)OCCN(C)C)cc1Br [Compound 14f] .
6.62

Tell me the measured pKd of CCCCCCCCNc1ccc(C(=O)OCCN(C)C)cc1[N+](=O)[O-] [Compound 14a] , please.
4.90

I would be grateful if you could share the reported pKd for CCCCCCCCNc1ccc(C(=O)OCCN(C)C)cc1Cl [Compound 14d] .
6.42

May I ask what pKd has been recorded for CCCCCCCCNc1ccc(C(=O)OCCN(C)C)cc1C [Compound 14c] ?
5.85

====

compounds and their reported Kd
Biological target: heteromeric rod CNG channels consisting of CNGA1 and CNGB1 subunits (Bos taurus, UniProt Q00194+Q28181)
Test: biochemical
Format: cell-based
Settings: Table 2 (butyl series); −50 mV, 2 mM cGMP; read-out: KD(−50)
Experimental: Currents were elicited by a voltage step protocol from 0 to −50 to +50 mV (See FIG. 1) in the presence of 2 mM cGMP or 2 mM cGMP and compound (5 μM). […] Recordings from inside-out excised patches were made 3-7 days after oocyte injection on an Axopatch 1D® amplifier (Axon Instruments, Foster City, Calif.). […] Glass syringes and Teflon tubing were used to minimize the binding of compounds to surfaces; concentrations passing through the perfusion system were verified by absorbance.
Answer format: numeric, µM implied, no suffix.

[[record]]
compound = "CCCCNc1ccc(C(=O)OCCN(C)C)cc1C [Compound 12c]"
quantity = "Kd"
readout_number = 28.1

[[record]]
compound = "CCCCNc1ccc(C(=O)OCCN(C)C)cc1[N+](=O)[O-] [Compound 12a]"
quantity = "Kd"
readout_number = 19.6

[[record]]
compound = "CCCCNc1ccc(C(=O)OCCN(C)C)cc1OC [Compound 12b]"
quantity = "Kd"
readout_number = 18.3


We next turn to a different compound, shown below.
Please report the recorded Kd for CCCCNc1ccc(C(=O)OCCN(C)C)cc1Cl [Compound 12d] .
12.8

====

Biological target: Butyrylcholinesterase purified from human blood serum (Homo sapiens, UniProt P06276)
Construct: Butyrylcholinesterase purified from human blood serum; purchased Sigma; host or cells: purified from human blood serum
Sequence (P06276 29-602): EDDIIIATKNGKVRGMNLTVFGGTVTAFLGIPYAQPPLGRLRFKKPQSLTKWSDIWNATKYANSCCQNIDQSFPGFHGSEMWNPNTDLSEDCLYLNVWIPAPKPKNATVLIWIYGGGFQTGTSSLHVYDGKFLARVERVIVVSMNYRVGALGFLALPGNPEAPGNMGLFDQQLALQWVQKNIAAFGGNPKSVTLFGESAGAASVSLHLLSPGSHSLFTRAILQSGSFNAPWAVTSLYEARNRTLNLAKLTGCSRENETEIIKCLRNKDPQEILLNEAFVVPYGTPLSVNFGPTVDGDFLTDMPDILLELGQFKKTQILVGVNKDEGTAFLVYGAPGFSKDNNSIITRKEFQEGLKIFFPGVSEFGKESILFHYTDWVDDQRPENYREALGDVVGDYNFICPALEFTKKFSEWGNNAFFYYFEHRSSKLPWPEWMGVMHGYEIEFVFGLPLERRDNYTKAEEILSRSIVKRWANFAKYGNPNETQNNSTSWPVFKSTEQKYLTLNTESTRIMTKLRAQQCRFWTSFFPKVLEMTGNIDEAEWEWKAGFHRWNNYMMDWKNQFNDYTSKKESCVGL
Experiment: In vitro hydrolysis by serum cholinesterase (butyrylcholinesterase)
Assay type: in vitro ADME
Conditions: 50 μM compound, 0.1M phosphate buffer pH 7.4, 37° C.; mean±SD of triplicate
Quantity: Hydrolysis rate (nmol/min/mg)
The reply should contain only the number, in nmol/min/mg.

[[record]]
molecule = "CCCCNc1ccc(C(=O)OCCN(C)C)cc1 [Compound 1, reference compound]"
readout_number = 132

[[record]]
molecule = "CCCCCCCCNc1ccc(C(=O)OCCN(C)C)cc1 [Compound 5, reference compound]"
readout_number = 213

[[record]]
molecule = "CCCCCCCCNc1ccc(C(=O)NCCN(C)C)cc1"
readout_number = 1.2


Attention now turns to another entry.
# get_value(readout='Hydrolysis rate', item= CCCCNc1ccc(C(=O)NCCN(C)C)cc1 )
8.4

====

Biological target: heteromeric rod CNG channels consisting of CNGA1 and CNGB1 subunits (Bos taurus, UniProt Q00194+Q28181)
Assay: biochemical
Type: cell-based
Settings: +50 mV, 2 mM cGMP; concentration series of FIG. 4 / FIG. 5; read-out: KD values determined from the fit of the equation
Quantity: Kd
Show the value, then the unit it is measured in.

[[record]]
molecule = "CCCCCCCCNc1ccc(C(=O)OCCN(C)C)cc1 [Compound 5, reference compound]"
quantity = "Kd"
result = "1.5 µM"

[[record]]
molecule = "CCCCCCCCNc1ccc(C(=S)NCCN(C)C)cc1"
quantity = "Kd"
result = "1.3 µM"


With those in mind, consider the next molecule.
Kd lookup needed for CCCCNc1ccc(C(=S)NCCN(C)C)cc1 , thanks.
0.5 µM
